Where do the numbers come from? From PubChem BioAssay (Tox21).

Assay: qHTS RealTime-Glo MT Cell Viability Assay in HEK293 cells - 16 hour (AID 1224872); note: nearly all actives have a fitted effect of over 50% in size
Conditions: RealTime-Glo luminescence; series mostly up to 76.8 µM
Results filed as inconclusive are left out. Calls of active or inactive are those of the source. Calls come from the whole dose curve; as a rule, active = well fitted cell-killing curve with a large enough effect in the repeat runs; inconclusive = weak or mixed curves, or effect the other way; inactive = flat fitted curve, though single readings scatter.
Form entry, call: pick from label 1 = active, label 0 = inactive

Before answering, review these 6 worked examples.
                                   compound  class_assignment
0               CCCCCC=CCC=CCCCCCCCC(=O)OCC           label 0
1      CC(C)CCCCCOC(=O)CCCCC(=O)OCCCCCC(C)C           label 0
2                           Cc1ccnc2ccccc12           label 0
3               CNCCCC1c2ccccc2C=Cc2ccccc21           label 0
4                               CCOC(=O)OCC           label 0
5  C[C@@H]1C[C@H]2[C@@H]3CCC4=CC(=O)C=C[C@]4(C)[C@@]3(F)[C@@H](O)C[C@]2(C)[C@H]1C(=O)CO           label 0

In this assay, the call recorded for `CCn1cc(C(=O)O)c(=O)c2cc(F)c(N3CCNCC3)nc21` was what? label 0

Recorded test call requested for `C[Si]1(C)O[Si](C)(C)O[Si](C)(C)O1` label 0

Hi, sorry to bother you, what did the test record for CC1C2CC(CC2C2CCCC(O)C2)C1(C)C (centres undefined) ? label 0

Please state the recorded outcome for this compound: `Cc1cc(S(=O)(=O)O)ccc1N=Nc1c(O)ccc2ccccc12` label 0

Per the assay record, what outcome was assigned to O=C(CCCN1CCN(c2ccc(F)cc2)CC1)NC1c2ccccc2CSc2ccccc21 (centres undefined) ? label 1

What was the test verdict on CC(CCO)CCc1ccccc1 (centres undefined) ? label 0

Give the logged outcome of this assay for the following compound: `C=CC(=C)CCCC(C)(C)OC(C)=O` label 0

Recorded test call requested for `c1cnc2c(n1)CCCC2` label 0
